# Assay System: LMPTP-A (Low Molecular Weight Protein Tyrosine Phosphatase-A) enzyme (Homo sapiens (Human))
# Sequence (P24666 whole entry): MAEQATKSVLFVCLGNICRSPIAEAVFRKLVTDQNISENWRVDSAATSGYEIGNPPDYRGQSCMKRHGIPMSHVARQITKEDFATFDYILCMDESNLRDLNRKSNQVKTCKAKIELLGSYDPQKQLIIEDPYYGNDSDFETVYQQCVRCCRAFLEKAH
# Experimental Details: LMPTP primary screening / LMPTP (OMFP) enzyme inhibition assay, fluorescence intensity
# Format: biochemical
# Particulars: LMPTP-A, OMFP substrate, method of Example 2; read-out: IC50
pIC50: −log10 of the molar value.
Kindly supply the reported pIC50 values for the records listed here.

Value of measured pIC50 for the entry COc1ccc(-c2cc(NCCc3ccc(C(F)(F)F)cc3)c3ccccc3n2)cc1 : 5.30 to 6.10

Briefly, pIC50 measured for Fc1ccc(-c2cc(NCCCN3CCCCC3)c3ccccc3n2)c(F)c1F : 5.30 to 6.10

According to the records, this compound COc1ccc(-c2cc(Nc3cccc(CN4CCNCC4)c3)c3ccccc3n2)cc1 displays pIC50 of 5.30 to 6.10

----------
# Assay System: LMPTP-A (Low Molecular Weight Protein Tyrosine Phosphatase-A) enzyme (Homo sapiens (Human))
# Experimental Details: LMPTP primary screening / LMPTP (OMFP) enzyme inhibition assay, fluorescence intensity
# Type: biochemical
# Particulars: LMPTP-A, OMFP substrate, method of Example 2; read-out: IC50
# Description: This assay attempts to identify inhibitors of the LMPTP-A (Low Molecular Weight Protein Tyrosine Phosphatase-A) enzyme. It is run in 1536-well format and is measured via fluorescence intensity. […] Assay Procedure • 1. […] Read plates on PerkinElmer Viewlux using a FI protocol.
Observable: IC50

The value of IC50 measured for the compound COc1ccc(-c2cc(NCCCN3CCCCC3)c3ccccc3n2)c(OC)c1 turned out to be 801 to 5000 nM

CC(=O)Nc1cccc(-c2cc(NCCCN3CCCCC3)c3ccccc3n2)c1 yielded IC50 of 801 to 5000 nM

Reported IC50 ( FC(F)(F)c1cc(Cl)ccc1-c1cc(NCCCN2CCCCC2)c2ccccc2n1 ) = 801 to 5000 nM

response.value for O=C(NC1CCCCC1)c1ccc(-c2cc(NCCCN3CCCCC3)c3ccccc3n2)cc1 (field: IC50) = 801 to 5000 nM

The compound identified as Clc1cccc(-c2cc(NCCCc3cccnc3)c3ccccc3n2)c1 registered its IC50 at 801 to 5000 nM

Record summary for O=C(NCCc1ccncc1)c1ccc(-c2cc(NCCCN3CCCCC3)c3ccccc3n2)cc1 : reported IC50 = 200 to 800 nM

The compound CC(=O)NCc1ccc(-c2cc(NCCCN3CCCCC3)c3ccccc3n2)cc1 showed IC50 equal to 200 to 800 nM

Reported IC50 for Cn1cc(-c2cc(NCCCN3CCCCC3)c3ccccc3n2)cn1 was > 5000 nM

response.value for CC(=O)Nc1ccc(-c2cc(NCCCN3CCCCC3)c3ccccc3n2)cc1F (field: IC50) = 801 to 5000 nM

Lookup result for c1c[nH]c(-c2cc(NCCCC3CCCNC3)c3ccccc3n2)c1 (centres unmarked) ; measured IC50: 801 to 5000 nM

The compound listed as Cc1cc(-c2cc(NCCCN3CCCCC3)c3ccccc3n2)cnc1C#N shows IC50 equal to 801 to 5000 nM

Consider Cc1nc(C)c(-c2cc(NCCCN3CCCCC3)c3ccccc3n2)s1 . Its measured IC50 is 801 to 5000 nM

Per the records, this compound ( CN(C)Cc1cccc(Nc2cc(-c3cccc(Cl)c3)nc3ccccc23)c1 ) has IC50 equal to 200 to 800 nM

IC50 in this record for CCN(CC)Cc1cccc(Nc2cc(-c3ccc(OC)cc3)nc3ccccc23)c1 : 801 to 5000 nM

Per the record, COc1ccc(-c2cc(Nc3cccc4cccnc34)c3ccccc3n2)cc1 has IC50 of > 5000 nM

Item: O=S(=O)(c1ccc(-c2cc(NCCCN3CCCCC3)c3ccccc3n2)cc1)N1CCOCC1 | IC50: 200 to 800 nM

GET /value?item= COc1ccc(-c2cc(NCc3ccc(C(F)(F)F)cc3)c3ccccc3n2)cc1 &field=IC50 returns 801 to 5000 nM

get_value(item= O=C(NCCCO)c1ccc(-c2cc(NCCCN3CCCCC3)c3ccccc3n2)cc1 , readout=IC50) returns 200 to 800 nM

Record summary for CN1CCCC1CCNc1cc(-c2cccc(Cl)c2)nc2ccccc12 (centres unmarked) : reported IC50 = 801 to 5000 nM

Documented IC50 of COc1ccc(-c2cc(NCCCN3CCCCC3)c3cc([N+](=O)[O-])ccc3n2)cc1 : > 5000 nM

Memo: CCOC(=O)CNC(=O)c1ccc(-c2cc(NCCCN3CCCCC3)c3ccccc3n2)cc1 , reported IC50: 200 to 800 nM

So for CC(=O)Nc1ccc(-c2cc(NCCCN3CCCCC3)c3ccccc3n2)cc1 , the logged IC50 turned out to be 801 to 5000 nM

Lookup result for COCc1ccc(-c2cc(NCCCN3CCCCC3)c3ccccc3n2)cc1 ; measured IC50: 200 to 800 nM

# IC50 of FC(F)(F)c1ccc(-c2cc(NCCCN3CCCCC3)c3ccccc3n2)c(C(F)(F)F)c1 = 200 to 800 nM

# IC50 of Clc1cccc(-c2cc(Nc3ccccc3CC3CCNCC3)c3ccccc3n2)c1 = 801 to 5000 nM

IC50 for Fc1cccc(-c2cc(NCCCN3CCCCC3)c3ccccc3n2)n1 is 801 to 5000 nM

Measured IC50, FC(F)(F)c1cc(-c2cc(Nc3cccc(CN4CCCC4)c3)c3ccccc3n2)cc(C(F)(F)F)c1 : > 5000 nM

Record CSc1ccccc1-c1cc(NCCCN2CCCCC2)c2ccccc2n1 . Reported IC50: 200 to 800 nM

Notebook: CN(C)c1cccc(-c2cc(NCCCN3CCCCC3)c3ccccc3n2)c1 , IC50 read as 801 to 5000 nM

The compound Fc1ccc(-c2cc(NCCCN3CCCCC3)c3ccccc3n2)c(F)n1 showed IC50 equal to 801 to 5000 nM

Value of measured IC50 for the entry COc1ccc(OC)c(-c2cc(NCCCN3CCCCC3)c3ccccc3n2)c1 : 801 to 5000 nM

The reported IC50 of the compound CN(C)Cc1ccc(Nc2cc(-c3cc(C(F)(F)F)cc(C(F)(F)F)c3)nc3ccccc23)cc1 was > 5000 nM

Per the records, this compound ( O=C(O)CCC(=O)Nc1ccc(-c2cc(NCCCN3CCCCC3)c3ccccc3n2)cc1 ) has IC50 equal to 801 to 5000 nM

The value of IC50 measured for the compound Fc1ccc(-c2cc(NCCCN3CCCCC3)c3ccccc3n2)cc1 turned out to be 801 to 5000 nM

The reported IC50 of the compound O=C(NCc1ccccc1)c1ccc(-c2cc(NCCCN3CCCCC3)c3ccccc3n2)cc1 was 200 to 800 nM
